Tested on: 186277-243-T-J2-PDC complex spheroid viability;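 further: spheroids exposed to compounds for seven days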
Test: Anticancer human tumor 186277-243-T-J2-PDC patient-derived colon adenocarcinoma cell line growth inhibition [POLQ]
Settings: second compound 0.1 µM; first compound 0.1 µM; stronger effect = lower value
Mark Yes only when viability, T/C stays strictly below 90%. Values equal to the cut-off are No.

[[record]]
molecule = "CCc1c2c(nc3ccc(O)cc13)-c1cc3c(c(=O)n1C2)COC(=O)[C@]3(O)CC + COC1C(OC(N)=O)C(O)C(Oc2ccc3c(O)c(NC(=O)c4ccc(O)c(CC=C(C)C)c4)c(=O)oc3c2C)OC1(C)C"
category_label = "Yes"


Input line: Dear reviewer, please state whether CNCc1ccc(-c2[nH]c3cc(F)cc4c3c2CCNC4=O)cc1 + Nc1ccc(C#CCN(C(=O)Cc2ncc(C(F)(F)F)cc2C(F)(F)F)c2ccc(F)cc2)nn1 has viability, T/C strictly beneath 90%.
Output line: No

Input line: Dear reviewer, please state whether CCc1cc2c(N3CCc4c(cc(Cn5ccnc5)cc4-c4cn(C)nc4C(F)(F)F)C3=O)ccnc2c(OC)n1 + Cc1cccc(N(C)C(=O)C2C(O)CCN2c2nc(C)cc(C(F)(F)F)c2C#N)c1 has viability, T/C strictly beneath 90%.
Output line: No

Input line: Dear reviewer, please state whether CC(C)n1c(=O)n(C)c2cnc3cc(F)c(-c4ccc(OCCCN5CCCCC5)nc4)cc3c21 + COC1C(OC(N)=O)C(O)C(Oc2ccc3c(O)c(NC(=O)c4ccc(O)c(CC=C(C)C)c4)c(=O)oc3c2C)OC1(C)C has viability, T/C strictly beneath 90%.
Output line: Yes

src = PubChem BioAssay AID1963854
